Target: CB2 receptors (Rattus norvegicus, UniProt Q9QZN9)
Sequence (Q9QZN9 1-360): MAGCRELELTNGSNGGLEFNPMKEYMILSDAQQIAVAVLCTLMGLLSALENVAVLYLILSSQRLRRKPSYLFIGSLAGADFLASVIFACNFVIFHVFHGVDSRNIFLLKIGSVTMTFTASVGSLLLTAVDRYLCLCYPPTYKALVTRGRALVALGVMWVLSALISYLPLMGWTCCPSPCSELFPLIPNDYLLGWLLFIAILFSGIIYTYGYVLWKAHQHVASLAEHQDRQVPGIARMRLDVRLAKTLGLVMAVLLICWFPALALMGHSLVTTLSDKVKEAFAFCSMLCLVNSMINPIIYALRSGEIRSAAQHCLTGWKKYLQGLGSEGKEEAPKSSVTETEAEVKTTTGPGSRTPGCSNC
Value Type: pKi
Would you please state pKi, meaning minus log10 of the concentration in mol/L, as a bare number?

Input line: Would you please give the reported pKi of O=S(=O)(F)CCCCCc1ccc(O)cc1 [AM3506] with CB2 receptors (Rattus norvegicus, UniProt Q9QZN9)?
Output line: 6.72

----------
target: human recombinant FAAH (Homo sapiens); assay: biochemical
Sequence (O00519 whole entry): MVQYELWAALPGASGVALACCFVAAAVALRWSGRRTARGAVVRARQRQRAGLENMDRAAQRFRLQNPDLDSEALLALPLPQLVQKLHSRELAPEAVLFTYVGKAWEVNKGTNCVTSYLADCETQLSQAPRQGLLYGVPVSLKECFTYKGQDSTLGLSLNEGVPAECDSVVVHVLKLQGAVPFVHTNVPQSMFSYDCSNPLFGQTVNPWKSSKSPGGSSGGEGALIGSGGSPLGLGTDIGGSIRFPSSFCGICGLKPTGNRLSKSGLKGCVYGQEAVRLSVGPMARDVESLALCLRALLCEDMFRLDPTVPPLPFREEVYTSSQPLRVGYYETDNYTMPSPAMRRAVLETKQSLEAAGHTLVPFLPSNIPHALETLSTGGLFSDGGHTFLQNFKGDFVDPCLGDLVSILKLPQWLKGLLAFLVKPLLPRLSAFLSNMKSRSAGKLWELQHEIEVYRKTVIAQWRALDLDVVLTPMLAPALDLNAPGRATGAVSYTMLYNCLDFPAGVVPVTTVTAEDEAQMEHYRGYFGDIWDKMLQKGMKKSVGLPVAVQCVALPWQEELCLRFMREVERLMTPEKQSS
Value Type: IC50 (nM)
Answer with a number only, understood to be in nM.

Input line: Kindly indicate its recorded IC50. Item: O=S(=O)(F)CCCCCc1ccc(O)cc1
Output line: 48
